Biological target: Human Thrombin (Homo sapiens, UniProt P00734)
Experiment: Inhibition of amidase activity of thrombin (Kass)
Format: biochemical
Conditions: apparent association constant, mean over a range of concentrations
MEASURED_ATTRIBUTE: Enzyme Kass, Human Thrombin

These recorded examples may help you get a feel for the data.
# Enzyme Kass, Human Thrombin measured on Human Thrombin (Homo sapiens, UniProt P00734) for item Cl.N=C(N)NCCC[C@@H](C=O)NC(=O)[C@@H]1C[C@@H]2CCCC[C@@H]2N1C(=O)[C@@H](Cc1ccccc1)NCC(=O)O (relative stereo) [Example 24, HOOCCH2 -D-Phe-cis-Ohi-ArgH.HCl] = 1,160 L/mol × 10^6

Value (Enzyme Kass, Human Thrombin, Human Thrombin (Homo sapiens, UniProt P00734)) for record CCS(=O)(=O)N[C@@H](C(=O)N1[C@H](C(=O)N[C@H](C=O)CCCNC(=N)N)C[C@@H]2CCCC[C@@H]21)c1ccccc1.Cl (relative stereo) [Example 22, EtSO2 -D-Phg-cis-Ohi-ArgH.HCl] = 6,170 L/mol × 10^6

# ---- query molecule ----
The reported Human Thrombin (Homo sapiens, UniProt P00734) Enzyme Kass, Human Thrombin of CCS(=O)(=O)N[C@@H](C(=O)N1C[C@@H](Oc2ccccc2)C[C@H]1C(=O)N[C@H](C=O)CCCNC(=N)N)c1ccccc1.Cl (relative stereo) [Example 17, EtSO2 -D-Phg-Pro(4-cis-phenoxy)-ArgH.HCl] is 2,200 L/mol × 10^6

Every entry's value here was drawn from patent US5599793A.
